Cited source for all entries: patent US20250230141A1

- Target Under Test: UniProt O43614
- Sequence (O43614 1-444): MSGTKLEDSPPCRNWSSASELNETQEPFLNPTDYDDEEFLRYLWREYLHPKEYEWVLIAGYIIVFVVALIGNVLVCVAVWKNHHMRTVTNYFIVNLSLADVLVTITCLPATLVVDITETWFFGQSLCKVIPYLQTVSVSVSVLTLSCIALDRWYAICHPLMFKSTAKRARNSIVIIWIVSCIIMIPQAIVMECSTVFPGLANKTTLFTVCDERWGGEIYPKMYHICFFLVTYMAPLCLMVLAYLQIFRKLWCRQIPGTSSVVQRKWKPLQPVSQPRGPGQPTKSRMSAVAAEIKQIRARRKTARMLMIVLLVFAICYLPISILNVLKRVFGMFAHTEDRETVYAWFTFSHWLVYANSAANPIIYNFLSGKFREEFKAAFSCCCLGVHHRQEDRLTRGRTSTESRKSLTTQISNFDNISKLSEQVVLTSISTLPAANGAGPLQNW
- Experiment: Human OX2R IP1 assay
- Assay Setup: T-Rex CHO cells stably overexpressing human OX2R; IP1 accumulation, 1 hr at 37 degrees C; mean EC50

| Compound | EC50 |
| --- | --- |
| Cn1ncc2cc([C@H]3CC[C@@H](OC[C@@H]4CN(CC(=O)N5CCCCC5)CC[C@@H]4NS(C)(=O)=O)CC3)ccc21 | > 10 nM |
| Cn1ccnc1CC(=O)N1CC[C@H](NS(C)(=O)=O)[C@H](CO[C@H]2CC[C@@H](c3ccc4c(cnn4C)c3)CC2)C1 | > 10 nM |
| Cn1ncc2cc([C@H]3CC[C@@H](OC[C@@H]4CN(C(=O)C5(F)CCC5)CC[C@@H]4NS(=O)(=O)C(F)(F)F)CC3)ccc21 | 1 to 10 nM |
| Cn1ncc2cc([C@H]3CC[C@@H](OC[C@@H]4CN(C(=O)C5CCOC5)CC[C@@H]4NS(C)(=O)=O)CC3)ccc21 (stereo partly drawn) [Compound 59] | 1 to 10 nM |
| Cn1ncc2cc([C@H]3CC[C@@H](OC[C@@H]4CN(C(=O)CN5CCCCC5)CC[C@@H]4NS(C)(=O)=O)CC3)ccc21 | > 10 nM |
| Cn1ncc2cc([C@H]3CC[C@@H](OC[C@@H]4CN(C(=O)C(C)(C)O)CC[C@@H]4NS(C)(=O)=O)CC3)ccc21 | 1 to 10 nM |
